- Test system: soybean plantlets
- method_notes: High-throughput soybean screening for herbicide tolerance (plantlets)
- Format: in vivo, soybean (A3555)
- Set-up: key: 0 for poor tolerance, high damage, low green coloration; 1 for some tolerance, average damage, moderate green coloration; 2 for good tolerance, low damage, high green coloration
- test_settings: TP13; S-3100 spray five weeks post-transformation, scored day four
Please provide measured coloration score for the entries that follow.
Reply with just the number.

Query: Provide coloration score value for the following molecule: H_N30: microbial HemG protoporphyrinogen oxidase, SEQ ID NO:5 (SEQ ID NO:14 lacking start methionine) (protein, listed as Erwinia toletana) MKALILFSSREGQTREIASYIANSIKEEMECDVFNILRVEQIDWSQYDRVLIGGSIHYGHFHPAVAKFVKRHLHELQQRSSGFFCVNLTARKADKRTPQTNAYMRKFLLQSPWQPDCCAVFAGALRYTRYRWFDRVMIQLIMRMTGGETDTSKEVEYTDWTQVARFAQEFAHLPGKTQ
Reply: 1

Query: Tell me coloration score reported for H_N10: E. coli wild-type HemG protoporphyrinogen oxidase, SEQ ID NO:4 (SEQ ID NO:13 lacking start methionine) (protein, listed as Escherichia coli) MKTLILFSTRDGQTREIASYLASELKELGIQADVANVHRIEEPQWENYDRVVIGASIRYGHYHSAFQEFVKKHATRLNSMPSAFYSVNLVARKPEKRTPQTNSYARKFLMNSQWRPDRCAVIAGALRYPRYRWYDRFMIKLIMKMSGGETDTRKEVVYTDWEQVANFAREIAHLTDKPTLK
Reply: 1
